- System: Hepatitis C replicon in Huh-7 cells
- Measurement Protocol: HCV replicon assay (inhibition of HCV replicon replication, NPT ELISA readout)
- Assay type: cell-based
- Test Settings: Hepatitis C virus, 72 h; Huh-7 HCV replicon-containing cells, three days incubation; read-out: Activity (EC50 class in an HCV replicon assay)
Readout Kind: EC50

{"Molecule": "C=CC1CC1(NC(=O)N1C[C@@H](OC(=O)N2CCCCC2)C[C@H]1C(=O)N[C@H](C(=O)OC(C)(C)C)C(C)(C)C)C(=O)OCC (some centres unmarked)", "Assay Value": "< 10 µM"}
{"Molecule": "C=CC1CC1(NC(=O)N1C[C@@H](Oc2cc(-c3ccccc3)nc3cc(OC)ccc23)C[C@H]1C(=O)NC(C(=O)N[C@H](C(=O)NC)C1CCCCC1)C(C)(C)C)C(=O)O (some centres unmarked)", "Assay Value": "> 100 µM"}
{"Molecule": "CCCC(NC(=O)N1C[C@@H](Oc2cc(-c3ccccc3)nc3cc(OC)ccc23)C[C@H]1C(=O)N[C@H](C(=O)N[C@H](C(=O)OC)C1CCCCC1)C(C)(C)C)C(=O)C(=O)NC1CC1 (some centres unmarked)", "Assay Value": "< 10 µM"}
{"Molecule": "C=CC1CC1(NC(=O)N1C[C@@H](Oc2cc(-c3ccccc3)nc3cc(OC)ccc23)C[C@H]1C(=O)N[C@H](C(=O)N[C@H](C(=O)NC)C1CCCCC1)C(C)(C)C)C(=O)NS(=O)(=O)C1CC1 (some centres unmarked)", "Assay Value": "< 10 µM"}
{"Molecule": "CCCC(NC(=O)N1C[C@@H](OC(=O)N2CCCCC2)C[C@H]1C(=O)N[C@H](C(=O)OC(C)(C)C)C(C)(C)C)C(=O)C(=O)NC1CC1 (some centres unmarked)", "Assay Value": "< 10 µM"}
{"Molecule": "C=CC1CC1(NC(=O)N1C[C@@H](OC(=O)N2CCCCC2)C[C@H]1C(=O)N[C@H](C(=O)OC(C)(C)C)C(C)(C)C)C(=O)O (some centres unmarked)", "Assay Value": "10 to 100 µM"}
{"Molecule": "CCCC(NC(=O)N1C[C@@H](OC(=O)N2CCc3ccccc3C2)C[C@H]1C(=O)N[C@H](C(=O)OC(C)(C)C)C(C)(C)C)C(=O)C(=O)NC1CC1 (some centres unmarked)", "Assay Value": "10 to 100 µM"}
{"Molecule": "C=CC1CC1(NC(=O)N1C[C@@H](OC(=O)N2CCCCC2)C[C@H]1C(=O)N[C@H](C(=O)OC(C)(C)C)C(C)(C)C)C(=O)NS(=O)(=O)C1CC1 (some centres unmarked)", "Assay Value": "< 10 µM"}
